These measurements were taken from paper PMC8809517.

Listed binders paired with reported Kd
Biological target: T1, GFP-9S library array, motif 4 ND N98F;D124R (synthetic construct, N98F;D124R)
T1 chain: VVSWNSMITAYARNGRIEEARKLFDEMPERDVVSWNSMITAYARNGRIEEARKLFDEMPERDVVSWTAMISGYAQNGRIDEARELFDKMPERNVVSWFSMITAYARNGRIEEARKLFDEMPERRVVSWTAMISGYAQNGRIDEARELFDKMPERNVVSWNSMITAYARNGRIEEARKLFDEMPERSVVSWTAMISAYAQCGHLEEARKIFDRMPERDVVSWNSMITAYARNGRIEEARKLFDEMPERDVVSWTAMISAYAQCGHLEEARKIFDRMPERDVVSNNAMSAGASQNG
Test: high-throughput RNA pulldown from lysate on Ni-NTA beads; HRP: 50 mM Tris pH 8, 150 mM NaCl, 1 mM beta-mercaptoethanol, 50 ug/ml BSA, 3 ug/ml yeast RNA, 0.5% heparin; ITC and FP: Tris pH 8, 200 mM KCl, 5% glycerol; MST: 50 mM Tris pH 8, 200 mM NaCl, 1 mM DTT, BSA, heparin, 0.05% Tween 20
Details: tags: N-terminal His-eGFP; label: 5' Cy5

Binder	Units symbol	Kd
AUUACACGUGA (ssRNA) [Cy5-rpoA]	nM	117
AUUAGACGUGA (ssRNA) [Cy5-rpoA-G]	nM	107
